Target: HIV-1 NefNL4-3 (Human immunodeficiency virus type 1 group M subtype B, UniProt P03406, A33V/T15A/T51N/V11I)
Experiment: Surface plasmon resonance binding to recombinant full-length Nef (NL4-3)
Conditions: Table 4; 1:1 Langmuir fit; T = 1/koff
Recorded T, minutes (residence time) by entry
Write down the numeric answer in E + 00 minutes and omit the unit.

Worked set:
Oc1c(CC2CCCOC2)c(-c2ccc(F)cc2)nn1-c1nc2ccccc2[nH]1 (stereo not shown) [Compound I-175] yielded T, minutes (residence time) of 7.72

Form field T, minutes (residence time), entry Oc1c(CC2CCN(CC(F)(F)F)CC2)c(-c2ccc(C(F)(F)F)cc2)nn1-c1nc2ccccc2[nH]1 [Compound I-1005] : 9.47

Alright, here's another compound for you.
Memo: OCCc1c(-c2ccc(C(F)(F)F)cc2)nn(-c2nc3ccccc3[nH]2)c1O [Compound I-153] , reported T, minutes (residence time): 9.31

* * *

Listed next: entries and their corresponding log10 Kd.
Biological target: Nef from SIV (strain mac239) (Simian immunodeficiency virus)
Assay: biochemical
A value of 2 here means Kd of 100 in nM, since values are log10.

The cases that follow already have their log10 Kd on record.
Please fill in: log10 Kd reported for Oc1c(CC2CCOCC2)c(-c2ccc(F)cc2)nn1-c1nc2ccccc2[nH]1 [Compound I-151] = 3.16

The compound listed as Oc1c(CCc2ccc(F)cc2)c(-c2ccc(C(F)(F)F)cc2)nn1-c1cc(C(F)(F)F)n[nH]1 [Compound I-601] shows log10 Kd equal to 4.34

Reported log10 Kd for CC(C)(C)OC(=O)N1CCC(CCc2c(-c3cccc(S(C)(=O)=O)c3)nn(-c3nc4ccccc4[nH]3)c2O)CC1 [Compound I-210] was 2.85

// recorded log10 Kd for CC(=O)N1CCC(Cc2c(-c3ccc(C(F)(F)F)cc3)nn(-c3nc4ccccc4[nH]3)c2O)CC1 [Compound I-720] : 1.34

Query CC(C)COC(=O)N1CCC(c2nn(-c3nc4ccccc4[nH]3)c(O)c2CCc2ccc(F)cc2)CC1 [Compound I-721] yields log10 Kd of 1.92

Input CS(=O)(=O)c1ccc(-c2nn(-c3nc4ccccc4[nH]3)c(O)c2CCc2ccc(F)cc2)cc1 [Compound I-148] . Output log10 Kd: 0.03

Record Oc1c(CCc2ccc(F)cc2)c(C2CC2)nn1-c1nc2cccnc2[nH]1 [Compound I-308] , field log10 Kd: 3.59

The compound Oc1c(CCc2ccc(F)cc2)c(C2CC2)nn1-c1nc2cc(Cl)ccc2[nH]1 [Compound I-170] showed log10 Kd equal to 0.46

The recorded log10 Kd for entry CC(C)OC(=O)N1CCC(c2nn(-c3nc4cc(Cl)ccc4[nH]3)c(O)c2CCC2CCOCC2)CC1 [Compound I-701] equals 4.29

Looking up Oc1c(CCc2ccncc2)c(-c2ccc(C(F)(F)F)cc2)nn1-c1nc2ccccc2[nH]1 [Compound I-101] , I see its log10 Kd listed as 1.40

New cases:
Entry Oc1c(CCc2ccc(F)cc2)c(-c2ccc(C(F)(F)F)cc2)nn1-c1nc2cccnc2[nH]1 [Compound I-301] ; log10 Kd = 0.24

Lookup result for CN(C)S(=O)(=O)N1CCC(c2nn(-c3nc4ccccc4[nH]3)c(O)c2CCc2ccc(F)cc2)CC1 [Compound I-746] ; measured log10 Kd: 1.69

The value of log10 Kd measured for the compound CC(C)(O)C(=O)N1CCC(CCc2c(C3CC3)nn(-c3nc4cc(Cl)ccc4[nH]3)c2O)CC1 [Compound I-712] turned out to be 0.34

compound CC(C)OC(=O)N1CCC(c2nn(-c3nc4ccccc4[nH]3)c(O)c2CCC2CCOCC2)CC1 [Compound I-722] , log10 Kd observed: 3.69

What the record says about CC(C)(C)OC(=O)N1CCC(CCc2c(-c3ccc(S(C)(=O)=O)cc3)nn(-c3nc4ccccc4[nH]3)c2O)CC1 [Compound I-201] : log10 Kd is 1.38

* * *

Molecular target: HIV-1 NefNL4-3 (Human immunodeficiency virus type 1 group M subtype B, UniProt P03406, A33V/T15A/T51N/V11I)
Assay: Surface plasmon resonance binding to recombinant full-length Nef (NL4-3)
Conditions: Nef NL4-3 Binding, SPR 2-state fitting KD, Table 1; 2-step induced-fit model
This section presents molecules with their documented log10 Kd values.
Hello, just confirming the data are log10 of Kd with units of nM.

The value of log10 Kd measured for the molecule Oc1c(CCc2ccc(F)cc2)c(C2CCN(Cc3ccccn3)CC2)nn1-c1nc2ccccc2[nH]1 turned out to be 2.26

Per the record, Oc1c(CCC2CCN(c3ncc(F)cn3)CC2)c(C2CC2)nn1-c1nc2cc(Cl)ccc2[nH]1 has log10 Kd of -1.82

According to the records, this molecule Oc1c(CCc2ccc(F)cc2)c(C2CCNCC2)nn1-c1nc2ccc(Cl)cc2[nH]1 displays log10 Kd of -0.29

The measured log10 Kd associated with O=C(C1CC1)N1CCC(CCc2c(C3CC3)nn(-c3nc4cc(Cl)ccc4[nH]3)c2O)CC1 reads 3.52

For reference, reported log10 Kd for CC(C)(C)OC(=O)N1CCC[C@H]1c1nn(-c2nc3ccccc3[nH]2)c(O)c1CCc1ccc(F)cc1 (stereo in doubt) stands at 2.32

---
Form field log10 Kd, entry O=C(C1CCC(O)CC1)N1CCC(c2nn(-c3nc4ccccc4[nH]3)c(O)c2CCc2ccc(F)cc2)CC1 (stereo not shown) : -0.30

Value of measured log10 Kd for the entry Oc1c(CCc2ccc(F)cc2)c(CNCc2cccnc2)nn1-c1nc2ccccc2[nH]1 : 4.10

* * *

Listed next: entries and their corresponding T, minutes (residence time).
Target: HIV-1 NefNL4-3 (Human immunodeficiency virus type 1 group M subtype B, UniProt P03406, A33V/T15A/T51N/V11I)
Assay: Surface plasmon resonance binding to recombinant full-length Nef (NL4-3)
Conditions: Table 4; 2-step induced fit; T = 1/koff2

The examples below pair each entry with its known result.
T, minutes (residence time) for CC(=O)N1CCC(CCc2c(-c3ccc(C(F)(F)F)cc3)nn(-c3nc4ccccc4[nH]3)c2O)CC1 [Compound I-719] is 4.44E + 01 minutes

GET /value?item= CC(C)(C)OC(=O)N1CCC(c2nn(-c3nc4ccc(Cl)cc4[nH]3)c(O)c2CCc2ccc(F)cc2)CC1 [Compound I-216] &field=T, minutes (residence time) returns 4.71E + 05 minutes

More entries:
The molecule Oc1c(CCc2ccc(F)cc2)c(C2CCCO2)nn1-c1nc2ccccc2[nH]1 (stereo not shown) [Compound I-136] showed T, minutes (residence time) equal to 3.32E + 00 minutes

The molecule identified as O=C(c1ccoc1)N1CCC(c2nn(-c3nc4ccccc4[nH]3)c(O)c2CCc2ccc(F)cc2)CC1 [Compound I-737] registered its T, minutes (residence time) at 9.06E + 03 minutes

The molecule identified as CC(=O)N1CCCC(c2nn(-c3nc4ccccc4[nH]3)c(O)c2CCc2ccc(F)cc2)C1 (stereo not shown) [Compound I-754] registered its T, minutes (residence time) at 8.05E + 05 minutes

In plain terms, Cc1ccn(CCc2c(-c3ccc(C(F)(F)F)cc3)nn(-c3nc4ccccc4[nH]3)c2O)n1 [Compound I-128] has a documented T, minutes (residence time) of 1.20E + 03 minutes

Short answer for CS(=O)(=O)c1ccc(-c2nn(-c3nc4cc(Cl)ccc4[nH]3)c(O)c2CCC2CCOCC2)cc1 [Compound I-168] : T, minutes (residence time) was 4.96E + 00 minutes

* * *

Below: a set of entries, each annotated with reported % Cell Viability.
Test system: TZM-bl cell line
Type: cell-based
Details: human, 1 μM

Sample records with % Cell Viability:
Entry Oc1c(CCN2CCOCC2)c(-c2ccc(C(F)(F)F)cc2)nn1-c1nc2ccccc2[nH]1 , TZM-bl cell line data, % Cell Viability value: 96.4%

Item Oc1c(CCc2ccc(F)cc2)c(-c2cccnc2)nn1-c1nc2ccccc2[nH]1 ; assay system TZM-bl cell line; % Cell Viability reported as 97.8%

Sample Oc1c(CCc2ccc(F)cc2)c(C2CCN(Cc3ccccn3)CC2)nn1-c1nc2ccccc2[nH]1 , system: TZM-bl cell line. Its % Cell Viability is 99.3%

Consider the record given below.
The compound O=C(Cc1ccncc1)N1CCCC1c1nn(-c2nc3ccccc3[nH]2)c(O)c1CCc1ccc(F)cc1 (stereo not shown) on TZM-bl cell line: % Cell Viability was 96.8%

* * *

Target: HIV-1 NefNL4-3 (Human immunodeficiency virus type 1 group M subtype B, UniProt P03406, A33V/T15A/T51N/V11I)
Test: Surface plasmon resonance binding to recombinant full-length Nef (NL4-3)
Conditions: KD, M, Table 4; SPR fit 2-step induced fit, KD = koff/kon × koff2/(koff2 + kon2)
Consider the cut-off 70 nM. If the recorded Kd is strictly smaller, the label is Criterion met; if not, the label is Criterion not met.

Consider the molecule CC(C)(C)OC(=O)N1CCC(c2nn(-c3nc4ccc(Cl)cc4[nH]3)c(O)c2CCc2ccc(F)cc2)CC1 . Is its Kd strictly less than 70 nM?
Criterion met

Continuing:
Dear reviewer, please state whether Oc1c(CCC2CCOCC2)c(-c2cccc(F)c2)nn1-c1nc2ccccc2[nH]1 has Kd strictly beneath 70 nM.
Criterion not met

Lab note: Kd threshold 70 nM. Does this molecule come in strictly under it? CS(=O)(=O)c1ccc(-c2nn(-c3nc4cc(Cl)ccc4[nH]3)c(O)c2CCC2CCOCC2)cc1
Criterion not met
